# run-description: Inhibition of binding of [125I]-CCK-8 to the cholecystokinin type B receptor
pIC50: −log10 of the molar value.
Entries and their measured pIC50 follow.

{"molecule": "CN1C(=O)[C@H](NC(=O)Nc2ccccc2Cl)N=C(c2ccccc2)c2ccccc21", "pIC50": 7.21}
{"molecule": "CN1C(=O)C(NC(=O)Nc2ccc(Cl)cc2)N=C(c2ccccc2)c2ccccc21 (stereo not drawn)", "pIC50": 7.09}
{"molecule": "Cc1cccc(NC(=O)NC2N=C(c3cccnc3)c3ccccc3N(C)C2=O)c1 (stereo not drawn)", "pIC50": 7.04}

* * *

Entries and their measured IC50 follow.
# run-description: Inhibition of binding of [125I]-CCK-8 to the cholecystokinin type B receptor

{"compound": "O=C(CN1C(=O)C(NC(=O)Nc2ccc(Cl)cc2)N=C(c2ccccc2)c2ccccc21)NCc1ccccc1 (stereo not drawn)", "IC50, nM": 102}
{"compound": "CN1C(=O)C(NC(=O)Nc2cccc(Cl)c2)N=C(c2ccccc2)c2ccccc21 (stereo not drawn)", "IC50, nM": 9.8}
{"compound": "O=C(Nc1ccc(Cl)cc1)N[C@H]1N=C(c2ccccc2)c2ccccc2N(CC(=O)N2CCCC2)C1=O", "IC50, nM": 13}
